- System: Opr86
- assay name: Solution biopanning against biotinylated Opr86 extracellular loop fragment, three rounds of selection
- Format: binding, P. aeruginosa
- condition context: Bushnell-Haas pH 8.5 with 1% Jet-A
property measured: % Abundance (%)
Your answer is read as %, so omit the unit and give the number.

Below, 3 substances whose answers are already recorded.
| substance | target desc | % Abundance [%] |
| --- | --- | --- |
| I I T M K R R (IITMKRR; Artificial sequence obtained through biopanning.) [OPP5, Opr86 peptide BRE] | Opr86 | 3 |
| L P S T I H R (LPSTIHR; Artificial sequence obtained through biopanning.) [OPP3, Opr86 peptide BRE] | Opr86 | 2 |
| L R P L M N R (LRPLMNR; Artificial sequence obtained through biopanning.) [OPP4, Opr86 peptide BRE] | Opr86 | 3 |

Asked: Name the recorded % Abundance of P R I R K S H (PRIRKSH; Artificial sequence obtained through biopanning.) [OPP1, Opr86 peptide BRE] , assay system Opr86.
Given back: 3

Asked: Name the recorded % Abundance of M H N L N L L (MHNLNLL; Artificial sequence obtained through biopanning.) [OPP2, Opr86 peptide BRE] , assay system Opr86.
Given back: 2

Asked: Name the recorded % Abundance of R K K S R I R (RKKSRIR; Artificial sequence obtained through biopanning.) [OPP6, Opr86 peptide BRE] , assay system Opr86.
Given back: 2
